experiment: UP0030 phase 1 study: plasma pharmacokinetics of UCB0599 and its metabolites; assay type: in vivo, human; settings: human, plasma, oral; UP0030 single ascending doses of UCB0599, across dose groups; read-out: Apparent elimination half‐life, GeoMean range
readout_type: half-life

// query What value of half-life has been reported for the following molecule? CCCC[C@H](Cc1c[nH]c2ccccc12)NC(=O)c1cnc(N2CCN(C)CC2)s1
// result 10.6 to 13 h

###

experiment: UP0030 phase 1 study: plasma pharmacokinetics of UCB0599 and its metabolites; type: in vivo, human; details: human, plasma, oral; UP0030 single dose 450 mg; read-out: AUC, GeoMean
readout_type: AUC (µg·h/mL)
Form entry: value (µg·h/mL) — number only.

// query What value of AUC has been reported for the following compound? CCCC[C@H](Cc1c[nH]c2ccccc12)NC(=O)c1cnc(N2CCN(C)CC2)s1
// result 17
